B1: ZNF24 (parent)
chain: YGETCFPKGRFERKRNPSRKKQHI

variants of: B1; assay: protein stability index of a GFP-peptide fusion (GPS, HEK-293T) (PSI 1-6); higher = more stable; conditions: c terminus: a fixed tail appended;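 also: lentivirally expressed fusions sorted by FACS into six bins by GFP to DsRed ratio, PSI derived from sequencing read proportions per bin multiplied by bin number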
Attribute: protein stability index

# var, protein stability index
records = [
    ("G9D", 2.71),
    ("R10G", 3.44),
    ("C5G", 2.17),
    ("T4A", 2.96),
    ("Y1A", 4.36),
    ("E12Q", 2.3),
    ("K8R", 2.88),
    ("R15L", 2.76),
    ("K14C", 2.41),
    ("R13A", 2.96),
    ("R13L", 2.58),
    ("T4P", 1.89),
    ("G2N", 3.65),
    ("G2C", 2.1),
    ("S18W", 2.22),
    ("S18E", 3.63),
    ("P17K", 2.5),
    ("G9K", 3.15),
    ("Q22R", 2.69),
    ("K21A", 2.78),
    ("K21L", 1.95),
    ("K14N", 3.48),
    ("T4H", 2.98),
    ("T4N", 2.37),
    ("F6K", 3.38),
    ("S18T", 2.72),
    ("E3D", 2.2),
    ("F6R", 3.7),
    ("G2I", 1.76),
    ("Y1V", 4.09),
    ("F11A", 3.43),
    ("Y1I", 3.74),
    ("Y1R", 3.63),
    ("T4D", 3.14),
    ("N16Q", 2.87),
    ("K14L", 2.82),
    ("S18I", 2.88),
    ("K14W", 2.34),
    ("E3V", 3.66),
    ("P7N", 3.69),
    ("P17A", 2.56),
    ("R19S", 3.38),
    ("E12N", 3.1),
    ("C5K", 4.01),
    ("K8I", 2.49),
    ("R10S", 2.82),
]

Data origin, for the record: the supplement of paper PMC10567573
